- Target: Serine/threonine-protein kinase N2 (Homo sapiens, UniProt Q16513)
- Sequence (Q16513 whole entry): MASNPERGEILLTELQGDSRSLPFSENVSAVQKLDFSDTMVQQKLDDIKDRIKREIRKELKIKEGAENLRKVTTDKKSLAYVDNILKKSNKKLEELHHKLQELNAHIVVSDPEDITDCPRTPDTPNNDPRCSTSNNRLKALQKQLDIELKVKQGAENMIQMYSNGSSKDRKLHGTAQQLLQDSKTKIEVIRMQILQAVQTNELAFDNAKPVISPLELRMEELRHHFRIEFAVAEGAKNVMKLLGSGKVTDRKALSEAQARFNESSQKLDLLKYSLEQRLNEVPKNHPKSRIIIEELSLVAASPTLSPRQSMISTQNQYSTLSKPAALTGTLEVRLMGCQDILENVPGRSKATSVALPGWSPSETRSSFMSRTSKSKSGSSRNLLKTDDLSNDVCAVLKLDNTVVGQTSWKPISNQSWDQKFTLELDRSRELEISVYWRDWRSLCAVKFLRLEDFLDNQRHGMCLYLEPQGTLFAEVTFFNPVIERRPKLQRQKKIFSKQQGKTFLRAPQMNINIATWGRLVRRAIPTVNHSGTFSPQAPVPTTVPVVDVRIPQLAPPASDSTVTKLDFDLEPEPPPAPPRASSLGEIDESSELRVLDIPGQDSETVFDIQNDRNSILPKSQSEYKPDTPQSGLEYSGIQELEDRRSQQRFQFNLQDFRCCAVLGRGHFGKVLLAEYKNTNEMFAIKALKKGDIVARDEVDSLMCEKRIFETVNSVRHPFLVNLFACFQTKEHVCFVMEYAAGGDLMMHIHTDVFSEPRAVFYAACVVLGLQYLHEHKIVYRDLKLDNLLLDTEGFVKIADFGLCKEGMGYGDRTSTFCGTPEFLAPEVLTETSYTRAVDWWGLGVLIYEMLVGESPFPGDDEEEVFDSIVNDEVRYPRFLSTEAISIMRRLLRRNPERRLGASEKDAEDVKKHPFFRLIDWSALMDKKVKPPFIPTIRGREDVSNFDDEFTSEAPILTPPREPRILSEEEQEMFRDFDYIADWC

- Smi: "COC(=O)Nc1cc(-c2ccc(OC[C@@](C)(N)CC(C)C)c(Cl)n2)ccn1"
  IC50: "140 nM"

----------
- Test details: Ratio of drug concentration in spinal cord to plasma in STZ-induced diabetic peripheral neuropathic mechanical allodynia in overnight fasted Sprague-Dawley rat at 1 mg/kg, po measured at 5.75 hrs post dose
- Format: ADME, organism-based
Measurement label: Kp at 5.75 h

- Smi: "CC(C)C[C@](C)(N)COc1ccc(-c2ccnc(C(F)F)c2)nc1C(F)F"
  Measured: 2.9
- Smi: "COC(=O)Nc1cc(-c2ccc(OC[C@@](C)(N)CC(C)C)c(C)n2)ccn1"
  Measured: 2.7
- Smi: "CC(C)C[C@](C)(N)COc1cnc(-c2ccnc(C(F)F)c2)cc1C(F)F"
  Measured: 2.7

----------
- Target: Cytochrome P450 3A4 (Homo sapiens)
- Sequence (P08684 whole entry): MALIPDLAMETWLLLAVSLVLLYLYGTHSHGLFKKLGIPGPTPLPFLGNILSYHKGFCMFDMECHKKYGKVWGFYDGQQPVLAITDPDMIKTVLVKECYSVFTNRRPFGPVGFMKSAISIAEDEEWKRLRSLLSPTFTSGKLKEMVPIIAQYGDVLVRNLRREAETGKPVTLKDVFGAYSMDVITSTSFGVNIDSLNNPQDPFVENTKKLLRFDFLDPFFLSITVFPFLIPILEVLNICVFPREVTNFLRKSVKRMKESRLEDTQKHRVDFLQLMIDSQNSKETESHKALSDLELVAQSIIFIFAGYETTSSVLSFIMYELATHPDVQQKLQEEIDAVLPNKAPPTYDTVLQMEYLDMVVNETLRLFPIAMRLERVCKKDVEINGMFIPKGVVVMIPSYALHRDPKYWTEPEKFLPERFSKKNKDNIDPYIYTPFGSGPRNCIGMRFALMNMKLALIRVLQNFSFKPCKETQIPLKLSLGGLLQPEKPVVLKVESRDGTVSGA
- Test details: Inhibition of CYP3A4 (unknown origin) incubated for 10 mins in presence of NADPH by LC-MS/MS analysis
- Assay type: ADME

- Smi: "COC(=O)Nc1cc(-c2ccc(OC[C@@](C)(N)CC(C)C)c(CO)c2)ccn1"
  Target: "Cytochrome P450 3A4 (Homo sapiens)"
  IC50: "> 20 µM"
- Smi: "COC(=O)Nc1cc(-c2cc(C(F)F)c(OC[C@@](C)(N)CC(C)C)cn2)ccn1"
  Target: "Cytochrome P450 3A4 (Homo sapiens)"
  IC50: "> 20 µM"
- Smi: "CC(=O)Nc1cc(-c2ccc(OC[C@@](C)(N)CC(C)C)c(F)c2)ccn1"
  Target: "Cytochrome P450 3A4 (Homo sapiens)"
  IC50: "> 20 µM"
- Smi: "COC(=O)Nc1cc(-c2ccc(OC[C@@](C)(N)CC(C)C)c(C(F)F)c2)ccn1"
  Target: "Cytochrome P450 3A4 (Homo sapiens)"
  IC50: "> 20 µM"
- Smi: "Cc1cc(-c2cc(Cl)c(OC[C@@](C)(N)CC(C)C)cn2)ccn1"
  Target: "Cytochrome P450 3A4 (Homo sapiens)"
  IC50: "> 20 µM"
- Smi: "COC(=O)Nc1cc(-c2ccc(OC[C@@](C)(N)CC(C)C)c(F)c2)ccn1"
  Target: "Cytochrome P450 3A4 (Homo sapiens)"
  IC50: "> 20 µM"
- Smi: "COC(=O)Nc1cc(-c2cc(Cl)c(OC[C@@](C)(N)CC(C)C)cn2)ccn1"
  Target: "Cytochrome P450 3A4 (Homo sapiens)"
  IC50: "> 20 µM"
- Smi: "CC(=O)Nc1cc(-c2ccc(OC[C@@](C)(N)CC(C)C)c(C#N)c2)ccn1"
  Target: "Cytochrome P450 3A4 (Homo sapiens)"
  IC50: "> 20 µM"
- Smi: "COC(=O)Nc1cc(-c2cnc(OC[C@@](C)(N)CC(C)C)cc2C)ccn1"
  Target: "Cytochrome P450 3A4 (Homo sapiens)"
  IC50: "> 20 µM"

----------
# remaining at 10 min, 0.5 µM per record follows
- Test details: Metabolic stability in mouse liver microsomes assessed as parent compound remaining at 0.5 uM incubated for 10 mins in presence of NADPH by LC-MS/MS analysis
- Format: ADME, Microsome
- Measurement parameters: liver microsomes, read-out: Stability

- Molecule: "CC(=O)Nc1cc(-c2ccc(OC[C@@](C)(N)CC(C)C)c(C(F)(F)F)c2)ccn1"
  Unit label: "%"
  remaining at 10 min, 0.5 µM: 54
- Molecule: "CC(=O)Nc1cc(-c2ccc(OC[C@@H](N)CC(C)C)c(C#N)c2)ccn1"
  Unit label: "%"
  remaining at 10 min, 0.5 µM: 84
- Molecule: "COC(=O)Nc1cc(-c2cnc(OC[C@@](C)(N)CC(C)C)cc2C)ccn1"
  Unit label: "%"
  remaining at 10 min, 0.5 µM: 69
- Molecule: "CC(=O)Nc1cc(-c2cc(F)c(OC[C@@H](N)CC(C)C)c(C(F)(F)F)c2)ccn1"
  Unit label: "%"
  remaining at 10 min, 0.5 µM: 69
- Molecule: "COc1cc(-c2ccnc(NC(C)=O)c2)ccc1OC[C@@H](N)CC(C)C"
  Unit label: "%"
  remaining at 10 min, 0.5 µM: 58
- Molecule: "COC(=O)Nc1cc(-c2ccc(OC[C@@](C)(N)CC(C)C)c(OC(F)(F)F)c2)ccn1"
  Unit label: "%"
  remaining at 10 min, 0.5 µM: 43
- Molecule: "CC(=O)Nc1cc(-c2ccc(OC[C@@](C)(N)CC(C)C)c(C(F)F)c2)ccn1"
  Unit label: "%"
  remaining at 10 min, 0.5 µM: 57
- Molecule: "COC(=O)Nc1cc(-c2ccc(OC[C@@](C)(N)CC(C)C)c(C)c2)ccn1 (racemic)"
  Unit label: "%"
  remaining at 10 min, 0.5 µM: 75
- Molecule: "COC(=O)Nc1cc(-c2ccc(OC[C@@](C)(N)CC(C)C)c(C(F)F)c2)ccn1"
  Unit label: "%"
  remaining at 10 min, 0.5 µM: 69
- Molecule: "COC(=O)Nc1cc(-c2cc(Cl)c(OC[C@@](C)(N)CC(C)C)cn2)ccn1"
  Unit label: "%"
  remaining at 10 min, 0.5 µM: 87
- Molecule: "CC(=O)Nc1cc(-c2cc(F)c(OC[C@@H](N)CC(C)C)c(Cl)c2)ccn1"
  Unit label: "%"
  remaining at 10 min, 0.5 µM: 75
- Molecule: "COC(=O)Nc1cc(-c2ccc(OC[C@@H](N)CC(C)C)c(F)c2)ccn1"
  Unit label: "%"
  remaining at 10 min, 0.5 µM: 80
- Molecule: "CC(=O)Nc1cc(-c2ccc(OC[C@@H](N)CC(C)C)c(Cl)c2)ccn1"
  Unit label: "%"
  remaining at 10 min, 0.5 µM: 86
- Molecule: "CC(=O)Nc1cc(-c2ccc(OC[C@@H](N)CC(C)C)c(C)c2)ccn1"
  Unit label: "%"
  remaining at 10 min, 0.5 µM: 64
- Molecule: "CC(=O)Nc1cc(-c2ccc(OC[C@@](C)(N)CC(C)C)c(F)c2)ccn1"
  Unit label: "%"
  remaining at 10 min, 0.5 µM: 70
- Molecule: "COC(=O)Nc1cc(-c2ccc(OC[C@@H](N)CC(C)C)c(-c3ccno3)c2)ccn1"
  Unit label: "%"
  remaining at 10 min, 0.5 µM: 53
- Molecule: "COC(=O)Nc1cc(-c2ccc(OC[C@@](C)(N)CC(C)C)nc2)ccn1"
  Unit label: "%"
  remaining at 10 min, 0.5 µM: 79
- Molecule: "COC(=O)Nc1cc(-c2cnc(OC[C@@](C)(N)CC(C)C)c(OC)c2)ccn1 (racemic)"
  Unit label: "%"
  remaining at 10 min, 0.5 µM: 59
- Molecule: "COC(=O)Nc1cc(-c2ccc(OC[C@@](C)(N)CC(C)C)c(F)c2)ccn1"
  Unit label: "%"
  remaining at 10 min, 0.5 µM: 71
- Molecule: "COC(=O)Nc1cc(-c2ccc(OC[C@@](C)(N)CC(C)C)c(C)c2C)ccn1 (racemic)"
  Unit label: "%"
  remaining at 10 min, 0.5 µM: 70
- Molecule: "Cc1cc(-c2ccnc(C(F)F)c2)ncc1OC[C@@](C)(N)CC(C)C"
  Unit label: "%"
  remaining at 10 min, 0.5 µM: 80
- Molecule: "CC(=O)Nc1cc(-c2cc(F)c(OC[C@@H](N)CC(C)C)c(F)c2)ccn1"
  Unit label: "%"
  remaining at 10 min, 0.5 µM: 90
- Molecule: "COC(=O)Nc1cc(-c2cc(C(F)F)c(OC[C@@](C)(N)CC(C)C)cn2)ccn1"
  Unit label: "%"
  remaining at 10 min, 0.5 µM: 63
- Molecule: "COC(=O)Nc1cc(-c2cc(OC)c(OC[C@@](C)(N)CC(C)C)cn2)ccn1"
  Unit label: "%"
  remaining at 10 min, 0.5 µM: 100
- Molecule: "COC(=O)Nc1cc(-c2ccc(OC[C@@](C)(N)CC(C)C)c(Cl)n2)ccn1"
  Unit label: "%"
  remaining at 10 min, 0.5 µM: 72
- Molecule: "CC(=O)Nc1cc(-c2ccc(OC[C@@](C)(N)CC(C)C)c(C#N)c2)ccn1"
  Unit label: "%"
  remaining at 10 min, 0.5 µM: 71
- Molecule: "CC(C)C[C@](C)(N)COc1cnc(-c2ccnc(C(F)F)c2)cc1C(F)F"
  Unit label: "%"
  remaining at 10 min, 0.5 µM: 89
- Molecule: "CC(C)C[C@](C)(N)COc1cnc(-c2ccnc(Cl)c2)cc1Cl"
  Unit label: "%"
  remaining at 10 min, 0.5 µM: 92
